Target: human CCR1 (Homo sapiens, UniProt P32246)
Sequence (P32246 whole entry): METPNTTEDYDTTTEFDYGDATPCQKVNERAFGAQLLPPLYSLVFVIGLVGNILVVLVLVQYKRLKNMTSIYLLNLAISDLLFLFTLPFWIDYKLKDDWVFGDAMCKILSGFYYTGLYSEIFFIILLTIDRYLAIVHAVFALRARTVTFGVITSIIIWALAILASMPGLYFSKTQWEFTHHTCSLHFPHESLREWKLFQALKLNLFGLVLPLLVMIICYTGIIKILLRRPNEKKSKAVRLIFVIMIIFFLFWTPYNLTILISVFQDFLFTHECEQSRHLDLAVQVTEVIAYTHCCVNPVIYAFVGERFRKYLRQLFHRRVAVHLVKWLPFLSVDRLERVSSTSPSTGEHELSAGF
Readout: Ki (nM)
Numbers only, in nM.

Identify the measured Ki of COC(=O)c1c(-c2ccno2)[nH]c(=S)n1CCCc1ccc(F)c(F)c1 [JNJ-27141491] for human CCR1 (Homo sapiens, UniProt P32246). 138
